Target: TYK2 JH2 (Homo sapiens)
Construct: purchased DiscoverX (KINOMEscan KdELECT service); host or cells: E. coli BL21-derived (T7 phage display) or HEK-293
Sequence (P29597 589-875 limits assumed): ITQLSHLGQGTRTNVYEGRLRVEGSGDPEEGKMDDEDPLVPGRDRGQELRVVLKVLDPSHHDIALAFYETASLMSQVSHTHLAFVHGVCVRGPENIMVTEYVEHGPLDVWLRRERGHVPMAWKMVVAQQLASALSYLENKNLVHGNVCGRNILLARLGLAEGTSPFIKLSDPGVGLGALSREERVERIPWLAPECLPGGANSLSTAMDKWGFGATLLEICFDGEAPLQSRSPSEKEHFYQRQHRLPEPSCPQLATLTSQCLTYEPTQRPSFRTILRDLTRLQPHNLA
Assay: TYK2 JH2 binding assay (KINOMEscan KdELECT competitive binding)
Conditions: TYK2 JH2 domain, KINOMEscan KdELECT (Assay A); read-out: Biochemical TYK2_JH2_Kd
experimental readout: Kd

Which Kd value belongs to CNc1ncc(-c2ccccc2)c2cc(NCc3ccccc3)ncc12 [Example 99] ?
1 to 10 µM

Next up: CNc1ncc(-c2ccccc2S(C)(=O)=O)c2cc(NC(=O)C3CC3)ncc12 [Example 48]
1 to 10 µM

Next up: CCc1cc2cc(NC(=O)C3CC3)ncc2c(NC)n1 [Example 165]
≤ 0.1 µM
